System: Staphylococcus aureus
Assay: Antibacterial activity against Staphylococcus aureus MRSA ATCC 43300 (CO-ADD:GP_020); MIC in CAMBH media using NBS plates, by Resazurin F(560/590)
Type: functional
Settings: Concentration 20 uM, ASSAY_TEST Inhibition of Bacterial Growth, detection method Resazurin, Fluorescence (ex560/em590), MEDIA CAMHB, plate type 384well, CORNING #3640, time 18 hr
For each of the compounds below, state its Inhibition.
Return type: number; implicit unit %.

Field request: Inhibition | item: O=C(Nc1ccc(Cl)c(Cl)c1)Nc1ccccc1O
-10.29

Field request: Inhibition | item: COC(=O)Cc1[nH]c(Cl)nc1C(N)=O
-16.49

Field request: Inhibition | item: Cc1cn(C2CC(O)C(CO)O2)c(=O)n(Cc2ccccc2)c1=O (configuration not stated)
4.94

Field request: Inhibition | item: O=c1cc(-c2ccc(O)cc2)oc2c(O)c(O)c(O)c(O)c12
7.67

Field request: Inhibition | item: CCOC(=O)C1CC(=O)c2cc(OC)c(OC)cc2C1 (configuration not stated)
-2.55

Field request: Inhibition | item: O=C(Cn1ccc(=O)[nH]c1=O)Nc1ccc(C(=O)O)c(O)c1
10.2

Field request: Inhibition | item: COc1ccc(NC(=O)CC(C)=O)c(OC)c1
5.13

Field request: Inhibition | item: O=C1c2ccccc2C(=O)C1c1ccccn1
-5.11

Field request: Inhibition | item: CC1CCCC(CC(=O)O)(CC(=O)O)C1 (configuration not stated)
-13.43

Field request: Inhibition | item: COCC(=O)OC1CCn2c1nc1c2C(=O)C(C)=C(NC(C)=O)C1=O (configuration not stated)
9.15

Field request: Inhibition | item: COc1ccc2c(=O)cc(-c3cccnc3)oc2c1OC
4.17

Field request: Inhibition | item: CC1CCC(C(C)C)C(NC(=O)c2ccncc2)C1 (configuration not stated)
7.04

###

Test system: Escherichia coli
Experiment: Antibacterial activity against Escherichia coli ATCC 25922 (CO-ADD:GN_001); MIC in CAMBH media using NBS plates, by Resazurin F(560/590)
Format: functional
Conditions: Concentration 20 uM, ASSAY_TEST Inhibition of Bacterial Growth, detection method Resazurin, Fluorescence (ex560/em590), MEDIA CAMHB, plate type 384well, CORNING #3640, time 18 hr
assayReadout: Inhibition (%)
Return type: number; implicit unit %.

Field request: Inhibition | item: NC(CC(=O)Nc1cc(C(F)(F)F)ccc1Cl)=NO
-6.61

Field request: Inhibition | item: NC(=O)c1ccc2c(c1)S(=O)(=O)c1ccccc1C2=O
-3.77

Field request: Inhibition | item: COc1cc(NC(C)=O)c2ncccc2c1NC(C)=O
-13.22

Field request: Inhibition | item: Cc1cccn2c(S)nnc12
13.03

Field request: Inhibition | item: CC(C)(C)CC(C)(C)N1CN=C(S)NC1
1.22

Field request: Inhibition | item: C=CCN=C(NC#N)SC
-1.07

Field request: Inhibition | item: Cc1c(O)cnc2nn(-c3ccccc3)c(=N)n12
2.75

Field request: Inhibition | item: COc1cc2c(cc1OC)C(C1(O)CCCCC1)NCC2 (stereo not drawn)
15.36

Field request: Inhibition | item: CNc1nc(SC)n(C)c(=O)c1N=O
13.38

Field request: Inhibition | item: CCCCn1ccnc1C
4.7

Field request: Inhibition | item: O=C(O)c1cc(Cl)nnc1O
13.02

Field request: Inhibition | item: O=C1CSCc2nc3ccccc3n21
5.14

Field request: Inhibition | item: COc1cc([N+](=O)[O-])ccc1NC(=O)Oc1ccc(NC(C)=O)cc1
0.56

Field request: Inhibition | item: COc1ccc([N+](=O)[O-])cc1NS(=O)(=O)c1ccc(C)cc1
7.35

Field request: Inhibition | item: Cn1c(=O)c2nc(SCc3ccccn3)[nH]c2n(C)c1=S
-0.48

Field request: Inhibition | item: Cl.O=C(O)c1ccc(NCc2nc3ccccc3[nH]2)cc1
-3.07

Field request: Inhibition | item: O=C(O)C1OCC2(CO1)COC(C(=O)O)OC2 (stereo not drawn)
10.47

Field request: Inhibition | item: NC(=O)Nc1n[nH]c(-c2ccccc2)n1
-7.81

Field request: Inhibition | item: CC1(C)CC2(C)OC2C2(C1)N=N/C(=N/c1ccccc1)O2 (stereo not drawn)
4.99

Field request: Inhibition | item: Cc1c([N+](=O)[O-])oc2c1C(=O)NCCC2
5.84

Field request: Inhibition | item: CC(C)(C)c1ccc(OC(=O)c2ccccc2)cc1
7.42

Field request: Inhibition | item: Nc1cc([N+](=O)[O-])ccc1N1C(=O)CCCC1=O
-8.9

Field request: Inhibition | item: O=C1OCC/C1=C\c1ccc2c(c1)OCO2
9.99

Field request: Inhibition | item: C#CC(C)OCC1CNC(=S)O1 (stereo not drawn)
10.24

Field request: Inhibition | item: O=C1c2cccc(Oc3ccccc3)c2C(=O)c2cccc(Oc3ccccc3)c21
-1.53

Field request: Inhibition | item: NC(=O)c1ccccc1OCC(=O)Nc1ccc(Cl)c(Cl)c1
19.19

Field request: Inhibition | item: O=C(c1ccccc1)c1ccccc1C(=O)c1ccccc1
4.94

Field request: Inhibition | item: Cc1cccnc1NC(=O)c1csnn1
4.7
